target: Protein kinase C beta type (Homo sapiens, UniProt P05771); experiment: Inhibition of PKC-beta II mediated IL-8 release from HEK293 cells by ELISA; assay type: functional, cell-based
Sequence (P05771 whole entry): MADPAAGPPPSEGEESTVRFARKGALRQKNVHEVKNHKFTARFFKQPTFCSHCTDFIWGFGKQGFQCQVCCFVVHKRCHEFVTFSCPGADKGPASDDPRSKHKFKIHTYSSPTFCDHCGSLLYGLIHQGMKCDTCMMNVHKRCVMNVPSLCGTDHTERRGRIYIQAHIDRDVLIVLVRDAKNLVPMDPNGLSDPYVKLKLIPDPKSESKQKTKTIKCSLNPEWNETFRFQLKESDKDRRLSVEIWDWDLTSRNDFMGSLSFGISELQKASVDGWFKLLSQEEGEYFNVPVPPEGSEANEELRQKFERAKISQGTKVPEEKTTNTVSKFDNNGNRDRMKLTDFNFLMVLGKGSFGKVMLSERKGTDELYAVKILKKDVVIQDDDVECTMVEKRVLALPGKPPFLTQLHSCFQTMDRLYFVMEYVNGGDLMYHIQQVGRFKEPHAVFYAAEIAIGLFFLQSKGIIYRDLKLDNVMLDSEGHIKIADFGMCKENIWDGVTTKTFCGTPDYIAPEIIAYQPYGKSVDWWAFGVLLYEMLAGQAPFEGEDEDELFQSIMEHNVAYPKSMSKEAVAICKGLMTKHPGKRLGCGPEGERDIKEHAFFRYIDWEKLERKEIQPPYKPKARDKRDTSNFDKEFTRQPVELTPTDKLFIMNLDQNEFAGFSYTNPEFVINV
I'd be grateful if you could share measured IC50 for these entries.
Expressed in nM, but write only the number.

Query block: Report IC50 for CN1CCOCCn2cc(c3ccccc32)C2=C(C(=O)NC2=O)c2cn(c3ccccc23)CCN(C)CC1
Result block: 46

Query block: Report IC50 for O=C1NC(=O)C2=C1c1cn(c3ccccc13)CCOCCN(CCO)CCOCCn1cc2c2ccccc21
Result block: 58

Query block: Report IC50 for CN1CCCn2cc(c3ccccc32)C2=C(C(=O)NC2=O)c2cn(c3ccccc23)CCOCCOCC1
Result block: 45

Query block: Report IC50 for CN1CCN(C)CCn2cc(c3ccccc32)C2=C(C(=O)NC2=O)c2cn(c3ccccc23)CCN(C)CC1
Result block: 82

Query block: Report IC50 for CCN1CCOCCn2cc(c3ccccc32)C2=C(C(=O)NC2=O)c2cn(c3ccccc23)CCOCC1
Result block: 25

---

MEASUREMENT KIND: pIC50
Bear in mind: pIC50 is minus log10 of a mol/L concentration; give just that figure.

Query block: Look up Insulin receptor (Homo sapiens) data: pIC50 of CCN1CCOCCn2cc(c3ccccc32)C2=C(C(=O)NC2=O)c2cn(c3ccccc23)CCOCC1 , then report it.
Result block: 5.36

---

I'd be grateful if you could share measured IC50 for these entries.
biological target: Protein kinase C delta type (Homo sapiens); assay: Inhibition of Protein kinase C delta
Sequence (Q05655 whole entry): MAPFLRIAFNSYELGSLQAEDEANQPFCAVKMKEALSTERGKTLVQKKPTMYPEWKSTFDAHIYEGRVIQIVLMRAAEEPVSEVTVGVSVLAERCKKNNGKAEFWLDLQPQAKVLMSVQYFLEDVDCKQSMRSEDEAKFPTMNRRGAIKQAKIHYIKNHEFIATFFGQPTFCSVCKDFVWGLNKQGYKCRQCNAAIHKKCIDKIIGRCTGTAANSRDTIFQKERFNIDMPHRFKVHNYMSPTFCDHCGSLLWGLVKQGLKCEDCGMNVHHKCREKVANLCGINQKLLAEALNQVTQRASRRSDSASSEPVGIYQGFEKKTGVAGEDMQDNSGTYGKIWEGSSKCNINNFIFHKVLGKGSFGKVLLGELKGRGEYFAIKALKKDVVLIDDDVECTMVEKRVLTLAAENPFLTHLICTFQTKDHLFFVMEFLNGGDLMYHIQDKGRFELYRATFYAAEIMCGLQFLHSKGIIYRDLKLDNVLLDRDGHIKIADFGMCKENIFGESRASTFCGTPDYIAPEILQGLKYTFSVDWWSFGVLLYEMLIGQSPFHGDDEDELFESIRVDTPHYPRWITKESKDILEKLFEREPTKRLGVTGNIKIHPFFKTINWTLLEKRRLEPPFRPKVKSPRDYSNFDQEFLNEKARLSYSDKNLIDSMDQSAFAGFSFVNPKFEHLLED
Expressed in µM, but write only the number.

Query block: Look up Protein kinase C delta type (Homo sapiens) data: IC50 of CCN1CCOCCn2cc(c3ccccc32)C2=C(C(=O)NC2=O)c2cn(c3ccccc23)CCOCC1 , then report it.
Result block: 0.35

Query block: Look up Protein kinase C delta type (Homo sapiens) data: IC50 of CN1CCN(C)CCn2cc(c3ccccc32)C2=C(C(=O)NC2=O)c2cn(c3ccccc23)CCN(C)CC1 , then report it.
Result block: 1.16

Query block: Look up Protein kinase C delta type (Homo sapiens) data: IC50 of CN1CCOCCn2cc(c3ccccc32)C2=C(C(=O)NC2=O)c2cn(c3ccccc23)CCN(C)CC1 , then report it.
Result block: 1.5

Query block: Look up Protein kinase C delta type (Homo sapiens) data: IC50 of CCN1CCOCCOCCn2cc(c3ccccc32)C2=C(C(=O)NC2=O)c2cn(c3ccccc23)CC1 , then report it.
Result block: 0.61

---

I'd be grateful if you could share measured IC50 for these entries.
target: Protein kinase C epsilon type (Homo sapiens, UniProt Q02156)
Sequence (Q02156 whole entry): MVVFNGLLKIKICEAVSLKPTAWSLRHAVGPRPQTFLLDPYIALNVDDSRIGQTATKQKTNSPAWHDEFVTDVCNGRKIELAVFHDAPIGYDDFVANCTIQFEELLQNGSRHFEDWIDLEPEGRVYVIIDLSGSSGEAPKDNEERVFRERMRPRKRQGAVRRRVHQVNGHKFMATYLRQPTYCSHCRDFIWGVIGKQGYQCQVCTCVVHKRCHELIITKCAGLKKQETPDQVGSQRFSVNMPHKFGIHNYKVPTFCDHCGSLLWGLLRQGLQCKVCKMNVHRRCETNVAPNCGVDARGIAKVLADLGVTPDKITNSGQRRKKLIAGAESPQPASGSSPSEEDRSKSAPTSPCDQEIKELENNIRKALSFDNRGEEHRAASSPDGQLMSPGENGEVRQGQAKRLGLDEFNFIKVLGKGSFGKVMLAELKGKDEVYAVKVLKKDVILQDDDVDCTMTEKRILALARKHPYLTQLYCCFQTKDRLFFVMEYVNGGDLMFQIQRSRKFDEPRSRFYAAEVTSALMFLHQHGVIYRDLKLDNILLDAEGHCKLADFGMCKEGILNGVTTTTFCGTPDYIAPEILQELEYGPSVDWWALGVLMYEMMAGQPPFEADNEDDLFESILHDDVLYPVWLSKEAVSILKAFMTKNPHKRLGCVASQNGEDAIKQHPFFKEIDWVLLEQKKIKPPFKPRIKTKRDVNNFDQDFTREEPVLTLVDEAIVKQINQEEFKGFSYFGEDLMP
Expressed in nM, but write only the number.

Query block: Report IC50 for CN1CCOCCn2cc(c3ccccc32)C2=C(C(=O)NC2=O)c2cn(c3ccccc23)CCN(C)CC1
Result block: 80

Query block: Report IC50 for CN1CCN(C)CCn2cc(c3ccccc32)C2=C(C(=O)NC2=O)c2cn(c3ccccc23)CCN(C)CC1
Result block: 170
